Tested on: MAK
test-conditions: Compound Concentration (nM):1000;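 further: KINOMEscan scanMAX binding as percent activity remaining versus control; lower means stronger binding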
reported-property: Percent Control

State the recorded Percent Control for this entry: COc1cc(C=NNc2ncnc3c2cnn3-c2ccccc2)ccc1O [GW513184X] 78%

Record: COc1cc2ncnc(Nc3ccc4c(cnn4Cc4ccccc4)c3)c2cc1OC.Cl [GW282449A] 100%

Record: COc1ccc2cc(-c3c(-c4ccncc4)nc(-c4ccc(S(C)(=O)=O)cc4C)n3C)ccc2c1 [SB-633825] 86%

Record: NS(=O)(=O)c1ccc(N/N=C2\C(=O)Nc3ccc(-c4cnco4)cc32)cc1 [GW276655] 100%

----------
System: PAK2
test-conditions: Compound Concentration (nM):1000
reported-property: Percent Control (%)
Quick note: give the figure in %, leave out the unit.

State the recorded Percent Control for this entry: NS(=O)(=O)c1ccc(N/N=C2\C(=O)Nc3ccc(C(=O)NCCc4c[nH]cn4)cc32)cc1 [GW300660X] 81

Record: CN1CCN(C(=O)c2ccc(NC(=O)Nc3ccc(N(C)c4ccnc(Nc5ccc(CS(C)(=O)=O)cc5)n4)cc3)cc2)CC1.Cl [GW830263A] 50

Record: CCS(=O)(=O)c1ccc(OC)c(Nc2ncc(-c3cccc(F)c3)o2)c1 [GW621970X] 100

Record: Cl.c1ccc(Cc2nc3ccc(Nc4ncnc5ccccc45)cc3[nH]2)cc1 [GR269666A] 100

Record: `O=C(Nc1n[nH]c2nc(-c3ccc(O)cc3)c(Br)cc12)C1CC1` 60

Record: Nc1ncnc2occ(-c3ccc(NC(=O)Nc4cc(C(F)(F)F)ccc4F)cc3)c12 [GW770249X] 100

Record: COc1ccc(COc2ccc(Cc3cnc(N)nc3N)cc2OC)cc1 [GW632580X] 100

Record: `COc1cc(C)c(N(C)C(=O)CN(C)C)cc1Nc1nc(Nc2cccc(F)c2C(N)=O)c2cc[nH]c2n1` 74
